molecular target: Rev-RRE complexes (recombinant Rev protein, synthetic 32P-labelled RRE RNA) (Human immunodeficiency virus type 1 group M subtype B, UniProt P04618); assay: Rev-RRE binding inhibition, nitrocellulose filter binding assay with scintillation counting; design: species or system Human Immunodeficiency Virus (HIV); conditions: array assayed at 6 ug/mL, non-specific competitor RNA, read-out: % inh
Sequence (P04618 whole entry, looked up, one chain of several): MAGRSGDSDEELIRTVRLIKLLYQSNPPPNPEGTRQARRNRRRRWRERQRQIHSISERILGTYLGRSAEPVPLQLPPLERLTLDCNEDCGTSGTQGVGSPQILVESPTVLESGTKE
Property name: inhibition at 6 µg/mL (%)
Hi! Could you send only the number? It should be in %, unit omitted.

// worked examples, inhibition at 6 µg/mL included
O=C(NC(c1ccccc1)c1ccccc1)/C(=C/c1ccc(OC(F)(F)F)cc1)NC(=O)c1ccc2ccccc2c1 | 96
O=C(NC1CCCc2ccccc21)/C(=C/c1ccc(-c2ccccc2)cc1)NC(=O)c1ccc(Cl)cc1Cl (centres unmarked) | 92
O=C(NCC(c1ccccc1)c1ccccc1)/C(=C/c1ccc(F)cc1)NC(=O)c1ccc2ccccc2c1 | 90

Entry O=C(NCc1ccco1)/C(=C/c1cccc(C(F)(F)F)c1)NC(=O)c1ccc2ccccc2c1 has what inhibition at 6 µg/mL?
93

Look up inhibition at 6 µg/mL for this molecule: Cc1ccc(C(=O)N/C(=C\c2ccccc2Cl)C(=O)NCCCN2CCOCC2)cc1
95

Field request: inhibition at 6 µg/mL | item: O=C(NCc1cccc2ccccc12)/C(=C/c1cnc2ccccc2c1)NC(=O)c1ccc2ccccc2c1
96

// query inhibition at 6 µg/mL value for entry O=C(NC(c1ccccc1)c1ccccc1)/C(=C/c1cccc(C(F)(F)F)c1)NC(=O)c1ccc2ccccc2c1
96

What inhibition at 6 µg/mL value was documented for this molecule, O=C(NC1CCc2ccccc21)/C(=C/c1ccc(-c2ccccc2)cc1)NC(=O)c1ccc(Cl)cc1Cl (centres unmarked) ?
90

Can you share its inhibition at 6 µg/mL? I mean this molecule: O=C(N/C(=C\c1ccc(C(F)(F)F)cc1)C(=O)N1CCN(c2cccc(C(F)(F)F)c2)CC1)c1ccc(Cl)cc1Cl
90

Could you tell me which inhibition at 6 µg/mL is on file for O=C(NCC(O)c1ccccc1)/C(=C/c1ccc(Cl)cc1Cl)NC(=O)c1ccc2ccccc2c1 (centres unmarked) ?
95

Entry under review: O=C(NC1CCc2ccccc21)/C(=C/c1cccc(C(F)(F)F)c1)NC(=O)c1ccc2ccccc2c1 (centres unmarked) . Reported inhibition at 6 µg/mL?
92

Dear colleague, I am looking for the recorded inhibition at 6 µg/mL of the following molecule: O=C(N/C(=C\c1ccc(C(F)(F)F)cc1)C(=O)N1CCN(c2ccccc2)CC1)c1ccc(C(F)(F)F)cc1
91

This collection of values is drawn from patent US5807754A.
